Values compiled from patent US20230391772A1.

Measured IC50, listed per entry for reference.
- TGT: HSP90a protein (Homo sapiens)
- Construct: purchased BPS Bioscience 50298
- TEST_METHOD_NOTES: HSP90α-binding fluorescent polarization (FP) assay, BODIPY-labeled RNK04010 probe
- CONDITION_SET: FP competition with RNK04010 (BODIPY-labeled), 5 nM, 300 min at 25° C.
MEASURED_PARAMETER: IC50

* C=CC(=O)N1CCN(c2nc(OC[C@@H]3CC[C@H](CN4CCN(C(=O)C5CCN(Cc6ccc(-n7c(O)nnc7-c7cc(C(C)C)c(O)cc7O)cc6)CC5)CC4)N3C)nc3c2CCN(c2cccc4cccc(Cl)c24)C3)C[C@@H]1CC#N | < 100 nM
* CCC(=O)N1CCN(c2nc(NCCC(=O)NCc3ccc(-n4c(O)nnc4-c4cc(C)c(O)cc4O)cc3)nc3c2CCN(c2cc(O)cc4ccccc24)C3)CC1 | > 1000 nM
* CCc1cc(-c2nnc(C(=O)NC(C)C)n2-c2ccc(CN3CCN(CC4CCN(C(=O)CCNc5nc6c(c(N7CCN(C(C)=O)CC7)n5)CCN(c5cc(O)cc7ccccc57)C6)CC4)CC3)cc2)c(O)cc1O | < 100 nM
* C=CC(=O)N1CCN(c2nc(NCCC(=O)N3CCC(CN4CCN(Cc5ccc(-n6c(C(=O)NCC(F)(F)F)nnc6-c6cc(CC)c(O)cc6O)cc5)CC4)CC3)nc3c2CCN(c2cccc4cccc(Cl)c24)C3)C[C@H]1CC#N | 100 to 1000 nM
* CC(=O)N1CCN(c2nc(NCCC(=O)NCCOCCOc3ccc(-n4c(O)nnc4-c4cc(C(C)C)c(O)cc4O)cc3)nc3c2CCN(c2cc(O)cc4ccccc24)C3)CC1 | 100 to 1000 nM
* C=CC(=O)N1CCN(c2nc(NCCC(=O)N3CCC(CN4CCN(Cc5ccc(-n6c(C(=O)NCC(F)(F)F)nnc6-c6cc(C)c(O)cc6O)cc5)CC4)CC3)nc3c2CCN(c2cccc4cccc(Cl)c24)C3)C[C@H]1CC#N | 100 to 1000 nM
* CCc1cc(-c2nnc(O)n2-c2ccc(CNC(=O)CCNc3nc4c(c(N5CCN(C(C)=O)CC5)n3)CCN(c3cc(O)cc5ccccc35)C4)c(F)c2)c(O)cc1O | > 1000 nM
* C=CC(=O)N1CCN(c2nc(OC[C@@H]3CC[C@H](C(=O)N4CCN(C(=O)c5ccc(-n6c(C(=O)NCC(F)(F)F)nnc6-c6cc(C(C)C)c(O)cc6O)cc5)CC4)N3C)nc3c2CCN(c2cccc4cccc(Cl)c24)C3)C[C@@H]1CC#N | < 100 nM
* C=CC(=O)N1CCN(c2nc(OCC3CCC(CNCc4ccc(-n5c(O)nnc5-c5cc(CC)c(O)cc5O)cc4)N3)nc3c2CCN(c2cccc4cccc(Cl)c24)C3)C[C@@H]1CC#N (some centres unmarked) | < 100 nM
* C=CC(=O)N1CCN(c2nc(NCCC(=O)NCCOCCOc3ccc(-n4c(O)nnc4-c4cc(C(C)C)c(O)cc4O)cc3)nc3c2CCN(c2cc(O)cc4ccccc24)C3)CC1 | < 100 nM
* CCC(=O)N1CCN(c2nc(NCCC(=O)NCc3ccc(-n4c(O)nnc4-c4cc(C(C)C)c(O)cc4O)cc3)nc3c2CCN(c2cc(O)cc4ccccc24)C3)CC1 | 100 to 1000 nM
* C=CC(=O)N1CCN(c2nc(OCCN3CCC(C(=O)N4CCC(Cc5ccc(-n6c(O)nnc6-c6cc(C(C)C)c(O)cc6O)cc5)CC4)CC3)nc3c2CCN(c2cccc4cccc(Cl)c24)C3)C[C@@H]1CC#N | < 100 nM
* C=CC(=O)N1CCN(c2nc(OC[C@@H]3C[C@@H](OCC(=O)N4CCC(CN5CCN(Cc6ccc(-n7c(C(=O)NCC(F)(F)F)nnc7-c7cc(CC)c(O)cc7O)cc6)CC5)CC4)CN3C)nc3c2CCN(c2cccc4cccc(Cl)c24)C3)C[C@@H]1CC#N | < 100 nM
* C=CC(=O)N1CCN(c2nc(OC[C@@H]3CC[C@H](C(=O)N4CCN(Cc5ccc(-n6c(O)nnc6-c6cc(C)c(O)cc6O)cc5)CC4)N3C)nc3c2CCN(c2cccc4cccc(Cl)c24)C3)C[C@@H]1CC#N | < 100 nM
* C=CC(=O)N1CCN(c2nc(NCCC(=O)N3CCC(Cc4ccc(-n5c(O)nnc5-c5cc(C(C)C)c(O)cc5O)cc4)CC3)nc3c2CCN(c2cccc4ccccc24)C3)C[C@H]1CC#N | 100 to 1000 nM
* C=CC(=O)N1CCN(c2nc(OC[C@@H]3C[C@H](C(=O)NCCc4ccc(-n5c(O)nnc5-c5cc(C(C)C)c(O)cc5O)cc4)CN3C)nc3c2CCN(c2cccc4cccc(Cl)c24)C3)C[C@@H]1CC#N | < 100 nM
* C=CC(=O)N1CCN(c2nc(OC[C@@H]3C[C@@H](NC(=O)C4CCN(Cc5ccc(-n6c(C(=O)NCC(F)(F)F)nnc6-c6cc(C(C)C)c(O)cc6O)cc5)CC4)CN3C)nc3c2CCN(c2cccc4cccc(Cl)c24)C3)C[C@@H]1CC#N | < 100 nM

* * *

- TGT: HSP90a protein (Homo sapiens, UniProt P07900)
- Construct: purchased BPS Bioscience 50298
- TEST_METHOD_NOTES: HSP90α-binding fluorescent polarization (FP) assay, BODIPY-labeled RNK04010 probe
- CONDITION_SET: FP competition with RNK04010 (BODIPY-labeled), 5 nM, 300 min at 25° C.
MEASURED_PARAMETER: IC50

• CC(=O)N1CCN(c2nc(NCCC(=O)N3CCC(Cc4ccc(CN(C)Cc5ccc(-n6c(C(=O)NCC(F)(F)F)nnc6-c6cc(C)c(O)cc6O)cc5)cc4)CC3)nc3c2CCN(c2cccc4ccccc24)C3)C[C@H]1CC#N = > 1000 nM
• C=CC(=O)N1CCN(c2nc(OC[C@@H]3CN(C(=O)C4CCN(Cc5ccc(-n6c(O)nnc6-c6cc(C)c(O)cc6O)cc5)CC4)CCN3C)nc3c2CCN(c2cccc4cccc(Cl)c24)C3)C[C@@H]1CC#N = < 100 nM
• C=CC(=O)N1CCN(c2nc(OCC3CN(C(=O)C4CCN(Cc5ccc(-n6c(C(=O)NCC(F)(F)F)nnc6-c6cc(C(C)C)c(O)cc6O)cc5)CC4)C3)nc3c2CCN(c2cccc4cccc(Cl)c24)C3)C[C@@H]1CC#N = < 100 nM
• C=CC(=O)N1CCN(c2nc(OC[C@@H]3C[C@H](C(=O)NCCOCCOc4ccc(-n5c(O)nnc5-c5cc(CC)c(O)cc5O)cc4)CN3C)nc3c2CCN(c2cccc4cccc(Cl)c24)C3)C[C@@H]1CC#N = < 100 nM

* * *

- System: NCI-H358 human non-small cell lung cancer
- TEST_METHOD_NOTES: NCI-H358 CCK-8 proliferation assay
- Format: cell-based
- CONDITION_SET: NCI-H358 cells, 72 hr
pEC50: −log10 of the molar value.
Measured pEC50, listed per entry for reference.
MEASURED_PARAMETER: pEC50

* C=CC(=O)N1CCN(c2nc(NCCC(=O)N3CCN(Cc4ccc5c(c4)CN(C(=O)c4ccc(O)cc4O)C5)CC3)nc3c2CCN(c2cc(O)cc4ccccc24)C3)CC1 [Compound 86, trifluoroacetic acid] | < 6.00
* C=CC(=O)N1CCN(c2nc(OC[C@@H]3CCN(C(=O)c4cc(C(C)C)c(OC)cc4O)C3)nc3c2CCN(c2cccc4cccc(Cl)c24)C3)C[C@@H]1CC#N [Compound 159] | < 6.00
* C=CC(=O)N1CCN(c2nc(NCCC(=O)N3CCC(CN4CCN(Cc5ccc(-n6c(C(=O)NCC(F)(F)F)nnc6-c6cc(CC)c(O)cc6O)cc5)CC4)CC3)nc3c2CCN(c2cc(O)cc4ccccc24)C3)CC1 [Compound 17, trifluoroacetic acid] | 6.00 to 7.00
* CCC(=O)N1CCN(c2nc(NCCC(=O)N3CCN(Cc4ccc(-n5c(O)nnc5-c5cc(C(C)C)c(O)cc5O)cc4)CC3)nc3c2CCN(c2cc(O)cc4ccccc24)C3)CC1 [Compound 35, trifluoroacetic acid] | < 6.00
* C=CC(=O)N1CCN(c2nc(NCCC(=O)NCc3ccc(-n4c(O)nnc4-c4cc(CC)c(O)cc4O)cc3)nc3c2CCN(c2cc(O)cc4ccccc24)C3)CC1 [Compound 40, trifluoroacetic acid] | < 6.00

* * *

- TGT: HSP90a protein (Homo sapiens)
- Construct: purchased BPS Bioscience 50298
- TEST_METHOD_NOTES: HSP90α-binding fluorescent polarization (FP) assay, BODIPY-labeled RNK04010 probe
- CONDITION_SET: FP competition with RNK04010 (BODIPY-labeled), 5 nM, 300 min at 25° C.
pIC50: −log10 of the molar value.
MEASURED_PARAMETER: pIC50

• CCc1cc(-c2nnc(O)n2-c2ccc(CN3CCN(CC4CCN(c5nc6c(c(N7CCN(C(=O)C(F)(F)F)[C@@H](CC#N)C7)n5)CCN(c5cccc7cccc(Cl)c57)C6)CC4)CC3)cc2)c(O)cc1O = < 6.00
• C=C(F)C(=O)N1CCN(c2nc(OCCN3CCN(C(=O)C4CCN(Cc5ccc(-n6c(O)nnc6-c6cc(C(C)C)c(O)cc6O)cc5)CC4)CC3)nc3c2CCN(c2cccc4cccc(Cl)c24)C3)C[C@@H]1CC#N = > 7.00
• C=CC(=O)N1CCN(c2nc(NCCC(=O)NCc3ccc(-n4c(O)nnc4-c4cc(C(C)C)c(O)cc4O)cc3F)nc3c2CCN(c2cc(O)cc4ccccc24)C3)CC1 = 6.00 to 7.00
• C=CC(=O)N1CCN(c2nc(OC[C@@H]3C[C@@H](OC(=O)N4CCN(Cc5ccc(-n6c(O)nnc6-c6cc(CC)c(O)cc6O)cc5)CC4)CN3C)nc3c2CCN(c2cccc4cccc(Cl)c24)C3)C[C@@H]1CC#N = > 7.00
• CCCc1cc(-c2nnc(O)n2-c2ccc(CN3CCN(CC4CCN(C(=O)CCNc5nc6c(c(N7CCN(C(C)=O)CC7)n5)CCN(c5cc(O)cc7ccccc57)C6)CC4)CC3)cc2)c(O)cc1O = 6.00 to 7.00
• CC(=O)N1CCN(c2nc(NCCC(=O)N3CCC(Cc4ccc(CN(C)Cc5ccc(-n6c(C(=O)NCC(F)(F)F)nnc6-c6cc(C(C)C)c(O)cc6O)cc5)cc4)CC3)nc3c2CCN(c2cc(O)cc4ccccc24)C3)CC1 = 6.00 to 7.00
• CCC(=O)N1CCN(c2nc(NCCC(=O)NCCOCCOc3ccc(-n4c(O)nnc4-c4cc(C(C)C)c(O)cc4O)cc3)nc3c2CCN(c2cc(O)cc4ccccc24)C3)CC1 = 6.00 to 7.00
• C=CC(=O)N1CCN(c2nc(NCCC(=O)NCCOCCOCCOc3ccc(-n4c(O)nnc4-c4cc(C(C)C)c(O)cc4O)cc3)nc3c2CCN(c2cccc4cccc(Cl)c24)C3)C[C@@H]1CC#N = 6.00 to 7.00
• C=CC(=O)N1CCN(c2nc(OC[C@@H]3CCN(C(=O)C4CCN(Cc5ccc(-n6c(O)nnc6-c6cc(C)c(O)cc6O)cc5)CC4)C3)nc3c2CCN(c2cccc4cccc(Cl)c24)C3)C[C@@H]1CC#N = 6.00 to 7.00
